test system: DLD-1; experiment: Inhibition of proteasome activity in human DLD1 cells expressing 4-ubiquitin luciferase reporter protein assessed increase of luciferase signal at 5 uM after 7 hrs relative to control
metric: fold change (FC)
Just the number.

| molecule | measValue |
| --- | --- |
| C=C(C(=O)[C@H](OC(C)=O)[C@@H](C)[C@H]1[C@@H](OC(C)=O)C[C@@]2(C)[C@@H]3[C@H]4O[C@H]4[C@H]4[C@H](C)C(=O)C=C[C@@]45C[C@@]35CC[C@]12C)[C@@H](C)CO | 72 |
| C=C(C(=O)[C@H](O)[C@@H](C)[C@H]1[C@@H](OC(C)=O)C[C@@]2(C)[C@@H]3CC[C@H]4[C@H](C)C(=O)C[C@H](O)[C@@]45C[C@@]35CC[C@]12C)[C@@H](C)CO | 11 |

Now examine the next entry.
QUERY: Return fold change (FC) measured with DLD-1 given this molecule: C=C(C(=O)C1(O)O[C@H]2C[C@@]3(C)[C@@H]4CC[C@H]5[C@H](C)C(=O)C=C[C@@]56C[C@@]46CC[C@]3(C)[C@H]2[C@@H]1C)[C@@H](C)CO (stereo partly drawn)
RESULT: 1
